Reference source: patent US20230263822A1

ASSAY_CONDITIONS: rat, in vivo, sc, 50 mg/kg
e = 2'-O-(2-methoxyethyl) (MOE); d = 2'-deoxy (DNA)

# SUBSTANCE, AST, IU/L
data = [
    ("ISIS 445498: 5-8-5 or 6-8-6 MOE microwalk gapmer (Table 44) (antisense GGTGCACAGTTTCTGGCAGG; sugars from the 5' end e6 d8 e6, backbone and methylation of C not given here)", 124),
    ("ISIS 445513: 5-8-5 or 6-8-6 MOE microwalk gapmer (Table 44) (antisense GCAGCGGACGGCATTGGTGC; sugars from the 5' end e6 d8 e6, backbone and methylation of C not given here)", 91),
    ("ISIS 445530: 5-8-5 or 6-8-6 MOE microwalk gapmer (Table 44) (antisense GCATTGGTGCACAGTTTC; sugars from the 5' end e5 d8 e5, backbone and methylation of C not given here)", 56),
    ("ISIS 445504: 5-8-5 or 6-8-6 MOE microwalk gapmer (Table 44) (antisense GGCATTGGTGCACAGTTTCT; sugars from the 5' end e6 d8 e6, backbone and methylation of C not given here)", 86),
    ("ISIS 445505: 5-8-5 or 6-8-6 MOE microwalk gapmer (Table 44) (antisense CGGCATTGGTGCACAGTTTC; sugars from the 5' end e6 d8 e6, backbone and methylation of C not given here)", 243),
    ("ISIS 445509: 5-8-5 or 6-8-6 MOE microwalk gapmer (Table 44) (antisense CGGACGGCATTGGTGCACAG; sugars from the 5' end e6 d8 e6, backbone and methylation of C not given here)", 291),
]

====

TEST: Hematology assays in cynomolgus monkeys (Example 46)
Assay type: in vivo
ASSAY_CONDITIONS: Day 45
Strand notation (5' to 3'): a small letter for the sugar, then the base; units joined by * are phosphorothioate-linked, units joined directly phosphodiester-linked; [ ] holds rarer units or linkages, { } end groups; capitals alone tell only the bases. e = 2'-O-(2-methoxyethyl) (MOE); [5mC] = 5-methylcytosine; d = 2'-deoxy (DNA)
MEASURE_NAME: monocytes (%)

# SUBSTANCE, READOUT_UNITS, OBSERVED_MEASUREMENT
records = [
    ("ISIS 445522: 5-8-5 or 6-8-6 MOE microwalk gapmer (Table 44) (antisense eG*e[5mC]*eA*e[5mC]*eA*dG*dT*dT*dT*d[5mC]*dT*dG*dG*e[5mC]*eA*eG*eG*e[5mC])", "%", 4.4),
    ("ISIS 416850: MOE gapmer, nucleobases 1275 to 1318 of SEQ ID NO: 1 (Table 8) (antisense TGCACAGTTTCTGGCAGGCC; MOE gapmer, wing and gap sizes not given here)", "%", 3.8),
]

====

System: human Factor 11 mRNA
TEST: Dose-dependent inhibition of human Factor 11 in HepG2 cells, electroporation 0.7-20 uM (Example 4)
Assay type: cell-based
ASSAY_CONDITIONS: 2.2 μM, relative to untreated control cells
Strand notation (5' to 3'): a small letter for the sugar, then the base; units joined by * are phosphorothioate-linked, units joined directly phosphodiester-linked; [ ] holds rarer units or linkages, { } end groups; capitals alone tell only the bases. e = 2'-O-(2-methoxyethyl) (MOE); [5mC] = 5-methylcytosine; d = 2'-deoxy (DNA)
MEASURE_NAME: percent inhibition of Factor 11 at 2.2 μM

# SUBSTANCE, OBSERVED_MEASUREMENT
records = [
    ("412203 (antisense eA*eA*eT*eG*eT*d[5mC]*dT*dT*dT*dG*dT*dT*dG*d[5mC]*dA*eA*eG*e[5mC]*eG*e[5mC]) [compound 412203]", "60%"),
    ("416999 (antisense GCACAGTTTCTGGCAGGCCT; 2-13-5 gapmer chemistry, further chemistry not given here) [compound 416999]", "42%"),
    ("416895 (antisense eT*eA*eT*dG*d[5mC]*d[5mC]*d[5mC]*dT*dT*d[5mC]*dA*dT*dG*dT*d[5mC]*dT*dA*eG*eG*eT) [compound 416895]", "62%"),
    ("416985 (antisense eG*e[5mC]*dA*dA*d[5mC]*d[5mC]*dG*dG*dG*dA*dT*dG*dA*dT*dG*eA*eG*eT*eG*e[5mC]) [compound 416985]", "48%"),
    ("413467 (antisense eG*eG*eT*e[5mC]*e[5mC]*dA*d[5mC]*dA*dT*dA*dA*dA*dT*dG*dT*e[5mC]*eT*eT*eT*eG) [compound 413467]", "31%"),
    ("413474 (antisense eA*eG*e[5mC]*eA*eA*d[5mC]*d[5mC]*dG*dG*dG*dA*dT*dG*dA*dT*eG*eA*eG*eT*eG) [compound 413474]", "5%"),
    ("416931 (antisense eG*eG*e[5mC]*dA*dT*dT*dG*dG*dT*dG*d[5mC]*dA*d[5mC]*dA*dG*dT*dT*eT*e[5mC]*eT) [compound 416931]", "24%"),
    ("416896 (antisense eT*eT*eA*dT*dG*d[5mC]*d[5mC]*d[5mC]*dT*dT*d[5mC]*dA*dT*dG*dT*d[5mC]*dT*eA*eG*eG) [compound 416896]", "35%"),
    ("416850 (antisense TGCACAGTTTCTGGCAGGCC; 5-10-5 gapmer, further chemistry not given here) [compound 416850]", "25%"),
    ("416825 (antisense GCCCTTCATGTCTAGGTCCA; 5-10-5 gapmer, further chemistry not given here) [compound 416825]", "74%"),
    ("416878 (antisense eG*eG*eT*d[5mC]*d[5mC]*dA*d[5mC]*dA*dT*dA*dA*dA*dT*dG*dT*d[5mC]*dT*eT*eT*eG) [compound 416878]", "26%"),
]

====

// values below are reported aPTT ratio relative to PBS group
Test system: blood coagulation
TEST: PT and aPTT assay in cynomolgus monkeys (Example 46)
Format: in vivo
ASSAY_CONDITIONS: Day 10; platelet poor plasma; relative to PBS group
Strand notation (5' to 3'): a small letter for the sugar, then the base; units joined by * are phosphorothioate-linked, units joined directly phosphodiester-linked; [ ] holds rarer units or linkages, { } end groups; capitals alone tell only the bases. e = 2'-O-(2-methoxyethyl) (MOE); [5mC] = 5-methylcytosine; d = 2'-deoxy (DNA)
MEASURE_NAME: aPTT ratio relative to PBS group

# SUBSTANCE, OBSERVED_MEASUREMENT
rows = [
    ("ISIS 416850: MOE gapmer, nucleobases 1275 to 1318 of SEQ ID NO: 1 (Table 8) (antisense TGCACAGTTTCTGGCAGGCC; MOE gapmer, wing and gap sizes not given here)", 0.98),
    ("ISIS 449708: 3-8-3, 4-8-4, 2-10-2, 3-10-3 or 4-10-4 MOE microwalk gapmer (Table 46) (antisense eA*e[5mC]*eA*dG*dT*dT*dT*d[5mC]*dT*dG*dG*e[5mC]*eA*eG)", 1.06),
    ("ISIS 449709: 3-8-3, 4-8-4, 2-10-2, 3-10-3 or 4-10-4 MOE microwalk gapmer (Table 46) (antisense eG*e[5mC]*eA*e[5mC]*dA*dG*dT*dT*dT*d[5mC]*dT*dG*dG*d[5mC]*eA*eG*eG*e[5mC])", 0.99),
    ("ISIS 449711: 3-8-3, 4-8-4, 2-10-2, 3-10-3 or 4-10-4 MOE microwalk gapmer (Table 46) (antisense eA*e[5mC]*dA*dG*dT*dT*dT*d[5mC]*dT*dG*dG*d[5mC]*eA*eG)", 0.92),
    ("ISIS 449707: 3-8-3, 4-8-4, 2-10-2, 3-10-3 or 4-10-4 MOE microwalk gapmer (Table 46) (antisense e[5mC]*eA*e[5mC]*eA*dG*dT*dT*dT*d[5mC]*dT*dG*dG*e[5mC]*eA*eG*eG)", 0.92),
    ("ISIS 416858: MOE gapmer, nucleobases 1275 to 1318 of SEQ ID NO: 1 (Table 8) (antisense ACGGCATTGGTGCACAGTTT; MOE gapmer, wing and gap sizes not given here)", 1.07),
    ("ISIS 449710: 3-8-3, 4-8-4, 2-10-2, 3-10-3 or 4-10-4 MOE microwalk gapmer (Table 46) (antisense e[5mC]*eA*e[5mC]*dA*dG*dT*dT*dT*d[5mC]*dT*dG*dG*d[5mC]*eA*eG*eG)", 1.00),
    ("ISIS 445522: 5-8-5 or 6-8-6 MOE microwalk gapmer (Table 44) (antisense eG*e[5mC]*eA*e[5mC]*eA*dG*dT*dT*dT*d[5mC]*dT*dG*dG*e[5mC]*eA*eG*eG*e[5mC])", 1.06),
    ("ISIS 445531: 5-8-5 or 6-8-6 MOE microwalk gapmer (Table 44) (antisense eG*eG*e[5mC]*eA*eT*dT*dG*dG*dT*dG*d[5mC]*dA*d[5mC]*eA*eG*eT*eT*eT)", 0.95),
]
